From: PubChem BioAssay (NCI)

System: DMS 273 small cell lung
Assay explanation: NCI tumour cell line growth inhibition, 48 h
Reported metric: TGI

OC12CCCCCC1(N1CCOCC1)c1ccccc12 (stereo unspecified) = > 100 µM
Cc1cc2occ(-c3ccc(Cl)cc3)c2c(=O)o1 = > 100 µM
CC1(C)COC(c2c(-c3ccccc3)noc2CS(=O)c2ccccc2)=N1 (stereo unspecified) = > 100 µM
COc1ccc(-c2c3ccccc3c(-c3ccc(OCCCCCBr)cc3)c3ccccc23)cc1 = > 100 µM
COC(=O)n1c(C[P+](c2ccccc2)(c2ccccc2)c2ccccc2)cc2ccccc21 = 6.25 µM
COc1cc([C@H]2c3[nH]c4ccccc4c3C[C@H]3COC(=O)N32)cc(OC)c1O = 44.2 µM
CC(=O)NC1=C(NCC(C)C)C(=O)c2ccccc2C1=O = 30.7 µM
CC(C)(C)CC(C)(C)c1ccc(OCCOCC[N+](C)(C)Cc2ccccc2)cc1 = 2.57 µM
C/C(=C\Cc1cc(O)ccc1O)CCc1c(C)cc(O)c(C=O)c1C = 55.4 µM
CC(C)(CO)N=Cc1ccccc1[O-].CC(C)(CO)N=Cc1ccccc1[O-].[Co+2] = > 100 µM
Cc1cc([N+](=O)[O-])c(S(=O)(=O)c2ccccc2)c([N+](=O)[O-])c1 = 32.1 µM
O=[N+]([O-])C1C2C=CC(C2)[C@H]1c1ccc(Cl)cc1Cl (stereo partly specified) = > 100 µM
COC(=O)C1(F)C(=O)NC(=O)NC1OC (stereo unspecified) = > 100 µM
NC(=O)C(=O)n1ncc(Cl)c(Cl)c1=O = > 100 µM
Cc1cc2n([O-])cccc-2[n+](=O)c1 = > 100 µM
CC(=O)OCCC(O[Si](c1ccccc1)(c1ccccc1)C(C)(C)C)C(C)(C)O (stereo unspecified) = > 100 µM
